Recorded MC4R selectivity vs MC1R values for a group of compounds are listed next.
experimental.system: human MC1R (Homo sapiens)
Construct: expressed in transfected cells; host or cells: HEK-293 cells stably expressing hMC1R and the GScAMP22F cAMP sensor
Sequence (Q01726 whole entry): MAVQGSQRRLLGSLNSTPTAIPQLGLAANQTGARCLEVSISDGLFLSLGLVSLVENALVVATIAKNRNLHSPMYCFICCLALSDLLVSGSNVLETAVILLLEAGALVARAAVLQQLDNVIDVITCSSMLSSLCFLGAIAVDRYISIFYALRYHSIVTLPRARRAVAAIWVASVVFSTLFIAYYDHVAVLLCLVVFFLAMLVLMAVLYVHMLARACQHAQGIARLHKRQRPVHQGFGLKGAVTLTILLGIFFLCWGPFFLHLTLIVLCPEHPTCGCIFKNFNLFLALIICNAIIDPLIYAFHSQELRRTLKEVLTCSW
assay.info: split-luciferase cAMP sensor assay, agonist mode, hMC1R
Format: cell-based
conditions.used: MC4R versus MC1R
Procedure: FIG. 4A-B. (A) Pharmacological properties of exemplary MC4R agonist peptides, including those with improved efficacy in the MC4R+/− mouse (CTX-1211, CTX-1227, and CTX-1228). Concentration-response agonist curves for peptides indicated at the human MC4R (red), human MC3R (blue), human MC5R (green), and human MC1R (black) were determined by a split-luciferase cAMP sensor dynamic assay in HEK-293 cells stably expressing the hMC1R, hMC3R, hMC4R, or hMC5R and the GScAMP22F cAMP sensor. […]
Positions of bridges follow the written chain, without caps; N, C: chain ends. Non-standard residues stand in square brackets, D forms with d. Residues, ends and D or L forms follow the SMILES beside them. Cit = NC(=O)NCCC[C@H](N)C(=O)O; Aib = CC(C)(N)C(=O)O
metric: MC4R selectivity vs MC1R

compound	metric	recorded.measurement
CC(=O)N[C@H]1CSSC[C@@H](C(N)=O)NC(=O)[C@H](Cc2ccccc2)NC(=O)[C@H](CCCNC(=N)N)NC(=O)[C@@H](Cc2ccccc2)NC(=O)[C@H](CCCNC(=N)N)NC(=O)C(C)(C)NC1=O [CTX-1635, cyclo(Cys-Aib-Arg-D-Phe-Arg-Phe-Cys)] (Ac-C[Aib]R[dF]RFC-NH2; disulfide 1-7 (inferred))	MC4R selectivity vs MC1R	1.19
N=C(N)NCCC[C@@H]1NC(=O)[C@@H](Cc2ccccc2)NC(=O)[C@H](CCCNC(N)=O)NC(=O)CNC(=O)CSC[C@@H](C(N)=O)NC(=O)[C@H](Cc2c[nH]c3ccccc23)NC1=O [CTX-1646] ({CH2CO}-G[Cit][dF]RWC-NH2; thioether N-6)	MC4R selectivity vs MC1R	>770
C[C@H]1NC(=O)CSC[C@@H](C(N)=O)NC(=O)[C@H](Cc2c[nH]c3ccccc23)NC(=O)[C@H](CCCNC(=N)N)NC(=O)[C@@H](Cc2ccccc2)NC(=O)[C@H](Cc2c[nH]cn2)NC1=O [CTX-1202]	MC4R selectivity vs MC1R	0.89
